Field: viability. Provide a value for each of the compounds that follow.
# measurement.protocol: reversal of MRP1-mediated doxorubicin resistance, pilot screen, H69AR cells, doxorubicin co-treatment (AID 601)
# particulars: H69AR cells, CellTiter-Glo, 72 h; compound alone cytotoxicity; at 10 µM
Expressed in %, but write only the number.

Asked: Given Cc1ccc(-n2nnnc2SCC(=O)N2CCN(C(=O)c3ccco3)CC2)c(C)c1 , state its recorded viability.
Given back: 95.5

Asked: Look up viability for this compound: COC(=O)C1=C(C)n2nnnc2NC1c1ccc(Cl)cc1 (configuration not stated)
Given back: 95.3

Asked: Reported viability for CC(C)[C@H](NC(=O)[C@@H]1CSCN1C(=O)OC(C)(C)C)C(=O)NCC1CCC(C(=O)O)CC1 (some centres not stated) : what is it?
Given back: 102

Asked: What value of viability has been reported for the following compound? Cc1cc2cc(CN(CCCN3CCOCC3)C(=O)NC3CCCCC3)c(=O)[nH]c2cc1C
Given back: 82.8

Asked: Which viability is listed for Cc1cc(Br)ccc1NC(=O)CNC(=O)CSc1n[nH]c(N)n1 ?
Given back: 104

Asked: Fill in: viability of COc1ccc(C(CNC(=O)c2ccc(OCC3CCCO3)cc2)N2CCOCC2)cc1 (configuration not stated) is ___
Given back: 105

Asked: Fill blank: measured viability of the compound O=C(c1ccccc1Br)N1CCN(c2ccccc2)CC1 is ____.
Given back: 102

Asked: Recorded viability of CC(C[N+](C)(C)C)OC(N)=O (configuration not stated) , please.
Given back: 99.4

Asked: Name the reported viability value associated with the compound CCCNS(=O)(=O)c1ccc(C(=O)NCC2CCCO2)cc1 (configuration not stated)
Given back: 95.1

Asked: Which viability value is on record for CC(C)C(NC(=O)c1ccco1)C(=O)NCC(c1ccco1)N1CCCCC1 (configuration not stated) ?
Given back: 93.9

Asked: Give the measured viability of CCOC(=O)N1CCN(c2c(NCCCOC(C)C)c(=O)c2=O)CC1 .
Given back: 97.5

Asked: Name the recorded viability for COc1ccc(CCNC(=O)COc2ccc(S(=O)(=O)N3CCOCC3)cc2)cc1 .
Given back: 95.1

Asked: // query viability value for entry CCn1cc(C(C)NC(=O)COc2ccc(Cl)cc2C)c(C)n1 (configuration not stated)
Given back: 105

Asked: What does the data say about its viability? Entry: O=C(C1CCCN(S(=O)(=O)c2ccc(Br)s2)C1)N1CCCCCC1 (configuration not stated)
Given back: 98.1

Asked: Requested read-out: viability. Entry: O=C(CN1C(=O)c2cccc3cccc1c23)N1CCN(c2ccccc2)CC1
Given back: 113

Asked: Entry under review: COC(=O)c1ccccc1NC(=O)C1CCCCC1C(=O)O (configuration not stated) . Reported viability?
Given back: 90.3

Asked: Could you share which viability value was measured for N#Cc1ccc(CSc2nnc(-c3cnccn3)o2)cc1 ?
Given back: 106

Asked: # get_value(readout='viability', item= COc1cc2c(cc1NC(=O)COC(=O)Cn1cnc3ccccc31)oc1ccccc12 )
Given back: 80.8

Asked: Fill in: viability of COc1cccc(OC)c1OCCNCCO is ___
Given back: 96

Asked: Please report the recorded viability for CCC(=O)Nc1ccc2nc(SCC(=O)N3CCCC3)sc2c1 .
Given back: 94.1

Asked: Report viability for COc1ccc(C2C(C(=O)c3sc(C)nc3C)=C(O)C(=O)N2CCN(C)C)cc1OC (configuration not stated) please.
Given back: 86.7

Asked: State the recorded viability for this entry: COc1cccc(CNC(=O)C2CCN(C(=O)N(C)C)CC2)c1
Given back: 92.2

Asked: Field request: viability | item: Cc1nc2cc(Cl)ccc2n1CCO
Given back: 92

Asked: Given the compound CCCCOCP(=O)(CCCC)COCCCC , what is its reported viability?
Given back: 94.1

Asked: Sample Cc1ccc(-c2noc(CCC(=O)NCCc3ccccc3Cl)n2)cc1 — what was its viability?
Given back: 99.6

Asked: What value of viability has been recorded for this entry: O=C(CN1CCN(Cc2ccc3c(c2)OCO3)CC1)Nc1ccc2c(c1)OCCO2
Given back: 94.4

Asked: Bench note: what viability did O=C(Cn1ccc2ccccc2c1=O)NCCC(=O)N1CCN(C(=O)c2ccco2)CC1 show?
Given back: 98.1

Asked: What value of measured viability is listed for CCOc1ccccc1NC(=O)NC1CCN(CC(=O)Nc2ccc3c(c2)OCCO3)CC1 ?
Given back: 86.8

Asked: What value of viability has been reported for the following compound? COCCCn1c2nc3ccccc3nc2c2c(=O)n(-c3ccccc3OC)cnc21
Given back: 73.7

Asked: Look at this compound and give its reported viability. O=C(NC1CC1)C1CCN(c2ccc(S(=O)(=O)N3CCOCC3)cc2)CC1
Given back: 94.7

Asked: Value lookup for viability; key = Cc1ccc(Cn2c(SCCN3CCCCC3)nc3c2c(=O)[nH]c(=O)n3C)cc1
Given back: 81.7

Asked: Using the record for CC1CCCCC1NC(=O)CN1CCN(Cc2ccccc2Cl)C1=O (configuration not stated) , report its viability.
Given back: 80.4

Asked: Please look up its viability: O=C(OCc1cc2ccccc2[nH]c1=O)c1ccco1
Given back: 100

Asked: // viability lookup, key: CCN(CC)S(=O)(=O)c1ccc(Br)c(OC)c1
Given back: 96.3

Asked: Which viability value belongs to O=C(CSc1ncccn1)c1ccccc1Br ?
Given back: 90.7

Asked: Which value of viability has been reported for c1coc(-c2nnc(NC3=NCCC3)o2)c1 in the records?
Given back: 98.7

Asked: Fill blank: measured viability of the compound CCOc1ccc(C2C=C(c3ccc(F)cc3)Nc3ncnn32)cc1 (configuration not stated) is ____.
Given back: 82.2
